System: mice of the ddN-series
ASSAY_REMARKS: Analgesic test, Chemical Stimulus Method (Writhing Method)
Format: in vivo, mouse
Parameters: scale not given here
ASSAY_CONDITIONS: interabdominal injection, comparative value, scale not given
MEASURE: Chemical Stimulus Method (Writhing Method)
Form rule: numeric answer, no unit written next to it.

For reference, reported Chemical Stimulus Method (Writhing Method) for COc1ccc2c(c1)C1(C)CCN(CCc3ccccc3)CC(C1)C2O (centres unmarked) stands at 1.6

For reference, reported Chemical Stimulus Method (Writhing Method) for CN1CCC2(C)CC(C1)C(O)c1ccccc12 (centres unmarked) [R=H, R1=CH3, R2=H, CH2R3=CH3, R4=OH] stands at 0.7

For reference, reported Chemical Stimulus Method (Writhing Method) for COc1ccc2c(c1)C1(C)CCN(C)CC(C1)C2O (centres unmarked) [R=CH3O, R1=CH3, R2=H, CH2R3=CH3, R4=OH] stands at 1.5

For reference, reported Chemical Stimulus Method (Writhing Method) for C=CCN1CCC2(C)CC(C1)C(O)c1ccc(OC)cc12 (centres unmarked) stands at 1.4

For reference, reported Chemical Stimulus Method (Writhing Method) for COc1ccc2c(c1)C1(C)CCN(C)CC(C2)C1 (centres unmarked) [R=CH3O, R1=CH3, R2=H, CH2R3=CH3, R4=H] stands at 0.8

For reference, reported Chemical Stimulus Method (Writhing Method) for c1ccc(CN2CCC3CC(Cc4ccccc43)C2)cc1 (centres unmarked) [R=H, R1=H, R2=H, CH2R3=drawing 42, R4=H] stands at 1.0

For reference, reported Chemical Stimulus Method (Writhing Method) for CCN1CCC2(C)CC(Cc3ccc(OC)cc32)C1 (centres unmarked) [R=CH3O, R1=CH3, R2=H, CH2R3=CH2CH3, R4=H] stands at 0.8

For reference, reported Chemical Stimulus Method (Writhing Method) for CN1CCC2(C)CC(Cc3ccc(O)cc32)C1 (centres unmarked) [R=HO, R1=CH3, R2=H, CH2R3=CH3, R4=H] stands at 1.5
